Molecular target: hKv7.2/7.3 (Homo sapiens, UniProt O43525+O43526)
Construct: host or cells: HEK cells, tetracycline-inducible expression
Assay: Kv7.2/7.3 Activation Assay, QPatch planar patch-clamp single concentration screen
Type: cell-based
Settings: increase in current over baseline, Kv7.2/Kv7.3 co-expressing HEK cells, compound concentration 3 μM, steady-state current at end of 2 s pulse to −30 mV
Reported metric: QPatch Kv7.2/7.3 Activity

- Smiles: "CC(C)(O)CC(=O)Nc1nn2ccc(C(F)(F)F)cc2c1-c1ccc(Cl)s1"
  Experimental result: "+ (2.0-3.99 (+))"
- Smiles: "O=C(CC1(O)CCCC1)Nc1nn2ccc(C(F)(F)F)cc2c1C1CCC1"
  Experimental result: "+ (2.0-3.99 (+))"
- Smiles: "CC(C)(C)OC(=O)Nc1nn2ccc(Br)cc2c1C1CCC1"
  Experimental result: "+ (2.0-3.99 (+))"

====

Biological target: hKv7.2/7.3 (Homo sapiens, UniProt O43525+O43526)
Construct: host or cells: HEK cells, tetracycline-inducible expression
Assay: Kv7.2/7.3 Activation Assay, QPatch planar patch-clamp single concentration screen
Format: cell-based
Conditions: increase in current over baseline, Kv7.2/Kv7.3 co-expressing HEK cells, compound concentration 3 μM, steady-state current at end of 2 s pulse to −30 mV
Reported metric: QPatch Kv7.2/7.3 Activity

Take a look at these entries with their results.
- Compound: "O=C(CC(O)(CF)CF)Nc1nn2ccc(C(F)(F)F)cc2c1C1CCC1"
  QPatch Kv7.2/7.3 Activity: "+ (2.0-3.99 (+))"
- Compound: "C[C@](O)(CC(=O)Nc1nn2ccc(C(F)(F)F)cc2c1C1CCC1)c1ccccc1"
  QPatch Kv7.2/7.3 Activity: "++ (4.0-5.99 (++))"
- Compound: "CC(C)(C)CC(=O)Nc1nn2cccc(F)c2c1C1CCC1"
  QPatch Kv7.2/7.3 Activity: "++ (4.0-5.99 (++))"
- Compound: "CC(C)[C@H](C)C(=O)Nc1nn2ccccc2c1C1CCC1"
  QPatch Kv7.2/7.3 Activity: "+ (2.0-3.99 (+))"
- Compound: "CCC(O)(CC)CC(=O)Nc1nn2ccc(C(F)(F)F)cc2c1-c1ccc(F)cc1"
  QPatch Kv7.2/7.3 Activity: "+ (2.0-3.99 (+))"

Give measured QPatch Kv7.2/7.3 Activity for every item shown.
1. CC(C)(O)c1ccn2nc(NC(=O)C[C@H]3CC(F)(F)C3(F)F)c(C3CCC3)c2c1
2. CC(O)(CC(=O)Nc1nn2ccc(C(F)(F)F)cc2c1C1CCC1)C1CCC1 (stereo not drawn)
3. Cn1ccc(-c2c(NC(=O)CC(C)(C)O)nn3ccc(C(F)(F)F)cc23)n1
4. CC(C)(C)CC(=O)Nc1nn2ccc(Cl)cc2c1-c1ccc(F)cc1
5. CC(C)(O)CC(=O)Nc1nn2ccc(C(F)(F)F)cc2c1C1CCC1
6. C[C@@](O)(CC(=O)Nc1nn2ccc(C(F)(F)F)cc2c1-c1ccccc1)c1ccccn1
7. Cn1cc(-c2c(NC(=O)CC(C)(C)O)nn3ccc(C(F)(F)F)cc23)cn1
8. C[C@](O)(CC(=O)Nc1nn2ccc(C#N)cc2c1C1CCC1)c1ccccc1

1. + (2.0-3.99 (+))
2. + (2.0-3.99 (+))
3. − (<1.2-fold (−))
4. +++ (>6-fold (+++))
5. + (2.0-3.99 (+))
6. ++ (4.0-5.99 (++))
7. − (<1.2-fold (−))
8. + (2.0-3.99 (+))
